- Target Or System: SARS-CoV-2 spike protein on authentic virus, strain SARS-CoV-2/human/AUS/VIC01/2020 (Victoria) (SARS-CoV-2, UniProt P0DTC2 14-1273)
- Procedure Details: cell-based or functional assay
Assay Metric: Neutralisation IC50 (nM)
Please reply with the bare figure in nM and do not write the unit itself.

As a guide, the following entries are already answered.
INSERT INTO results (binder, result_unit, recorded_value) VALUES
  ('antibody 158, full-length IgG (antibody, V domains shown, also called mAb 158; 158 IgG) VH: EVQLLESGGDLIQPGGSLRLSCAASGVTVSSNYMSWVRQAPGKGLEWVSIIYPGGSTFYADSVKGRFTISRDNSKNTLYLQMHSLRAEDTAVYYCARDLGSGDMDVWGKGTTVTVSS VL: DIVMTQSPSFLSASVGDRVTITCRASQGISSYLAWYQQKPGKAPKLLIQAASTLQSGVPSRFSGSGSGTEFTLTISSLQPEDFATYYCQQLNSYRYTFGQGTKVEIK', 'nM', 0.13),
  ('antibody 159, full-length IgG (antibody, V domains shown) VH: EVQLVESGGGVVQPGRSLRLSCAASGFTFSSYGMHWVRQAPGKGLEWVALISYDGGNRYYADSVKGRFTISRDNSKNTLYLQMNRLRAEDTAMYYCAKDRDDGWDWYYFMDVWGKGTTVTVSS VL: DIQLTQSPGTLSLSPGERATLSCRASQSISGNYLAWYQHKPGQAPRLLIYGASTRATGIPDRFSGSGSGTDFTLTISRLEPEDFAVYYCQQYGSSYTFGQGTKVEIK', 'nM', 0.08),
  ('Fab of antibody 88 (Fab, V domains shown, also called 88 Fab; Fab 88) VH: QLQLQESGPGLVKPSQTLSLTCTVSGGSISSGSYNWTWIRQPAGKGLEWIGRIYNSGSTNYNPSLKSRVTISVDTSKNQLSLKVRSVTAADTAVYYCARHCSGGTCYPKYYYGMDVWGQGTTVTVSS VL: QSALTQPPSVSEAPRQRVTISCSGSSSNIGNNAVNWYQQFPGKAPKLLIYYDDLLPSGVSDRFSGSKSGTSASLAISGVQSEDEADYYCAAWDDSLNVVVFGGGTKLTVL', 'nM', 6.95),
  ('antibody 88, full-length IgG (antibody, V domains shown, also called mAb 88; 88 IgG) VH: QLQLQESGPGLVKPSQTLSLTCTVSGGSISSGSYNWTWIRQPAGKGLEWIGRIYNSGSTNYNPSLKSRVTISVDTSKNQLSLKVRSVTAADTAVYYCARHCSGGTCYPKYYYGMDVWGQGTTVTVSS VL: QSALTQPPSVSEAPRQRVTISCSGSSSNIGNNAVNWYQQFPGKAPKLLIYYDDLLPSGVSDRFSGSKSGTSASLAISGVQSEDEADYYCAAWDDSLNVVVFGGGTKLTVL', 'nM', 0.07);

Okay, now this binder:
Request: Any idea what Neutralisation IC50 was measured for Fab of antibody 158 (Fab, V domains shown, also called 158 Fab; Fab 158) VH: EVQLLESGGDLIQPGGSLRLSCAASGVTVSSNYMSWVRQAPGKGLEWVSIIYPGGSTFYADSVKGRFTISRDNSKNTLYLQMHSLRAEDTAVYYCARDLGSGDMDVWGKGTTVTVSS VL: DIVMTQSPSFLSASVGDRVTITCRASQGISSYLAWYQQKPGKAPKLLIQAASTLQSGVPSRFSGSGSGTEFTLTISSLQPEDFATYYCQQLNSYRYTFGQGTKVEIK ?
Response: 4.12
